- System: BT-549 breast
- PROTOCOL_SUMMARY: NCI tumour cell line growth inhibition, 48 h
# TGI listing for each entry below

Solved cases below.
Lab book: TGI of Fc1cccc(F)c1C1SCc2nc3ccc(Cl)cc3n21 (stereo not drawn) noted as > 100 µM

What the record says about COc1cc(-c2nn(-c3cccc(NC(=O)c4ccc(Cl)c(C(F)(F)F)c4)c3)cc2-c2ccncc2)ccc1Cl : TGI is > 32.5 µM

Measured TGI of CC(=O)Oc1ccc(/C=C/C(=O)O[C@@H](C(=O)O)[C@@H](OC(=O)/C=C/c2ccc(OC(C)=O)c(OC(C)=O)c2)C(=O)O)cc1OC(C)=O : > 100 µM

Quick note, TGI for CCN(CC)c1ccc2cc(C(=O)Nc3ccccn3)c(=N)oc2c1 landed at > 100 µM

GET /value?item= COC(=O)c1ccc(NC(=O)Oc2ccc(N(CCCl)CCCl)cc2)cc1 &field=TGI returns > 100 µM

Pending molecule:
The reported value for COc1ccc(-n2sc3ncccc3c2=O)cc1 in terms of TGI is 38.6 µM
